Could you please report measured TGI for the items listed next?
# Test system: HL-60(TB) leukemia
# assay summary: NCI tumour cell line growth inhibition, 48 h
Field: numeric (µM). Do not append units.

INPUT: Request - read-out TGI | tested on HL-60(TB) leukemia | molecule `O=c1cc(-c2cccc3c2Sc2ccccc2S3)oc(N2CCOCC2)c1`
OUTPUT: 32.3

INPUT: Request - read-out TGI | tested on HL-60(TB) leukemia | molecule `COc1cc(NCCCN=C(N)NC(N)=NC(C)C)c2ncccc2c1`
OUTPUT: 31.8

INPUT: Request - read-out TGI | tested on HL-60(TB) leukemia | molecule `COc1ccc(/C=C2\CCS(=O)(=O)c3ccccc3C2=O)cc1`
OUTPUT: 66.4

INPUT: Request - read-out TGI | tested on HL-60(TB) leukemia | molecule C=C1CCC2C3(C)COC(c4ccccc4)OC3CCC2(C)C1/C=C/C1=CCOC1=O (stereo unspecified)
OUTPUT: 3.91

INPUT: Request - read-out TGI | tested on HL-60(TB) leukemia | molecule `NCCOCCOCCNc1nc(-c2ccccc2)nc(N2CCN(c3ccccn3)CC2)n1`
OUTPUT: 26.5

INPUT: Request - read-out TGI | tested on HL-60(TB) leukemia | molecule `O=C(Cc1ccc(F)c(F)c1)Nc1cc(C2(C(F)(F)F)CC2)nn1Cc1ccccc1`
OUTPUT: 8.33

INPUT: Request - read-out TGI | tested on HL-60(TB) leukemia | molecule CCN(CC)CC(O)CNc1c2ccc([N+](=O)[O-])cc2nc2cc(OC)c(OC)cc12 (stereo unspecified)
OUTPUT: 6.81

* * *

# Test system: SK-MEL-28 melanoma
# assay summary: NCI tumour cell line growth inhibition, 48 h
Could you please report measured TGI for the items listed next?

INPUT: Look up TGI for this compound: `COC(=O)c1cccn1C(=O)n1cccc1`
OUTPUT: > 100 µM

INPUT: Look up TGI for this compound: O=C(CCN1CCN(c2ccccc2)CC1)N1CCc2c([nH]c3ccccc23)C1c1cccnc1 (stereo not given)
OUTPUT: 29.1 µM

INPUT: Look up TGI for this compound: `Cc1nnc(-c2cccc(-c3ccc(C(=O)NCC4CC4)cc3)c2)o1`
OUTPUT: > 25 µM

INPUT: Look up TGI for this compound: `O=c1c2cc3c(=O)n4c(cc(-c5ccccc5)c5cc(Cl)ccc54)nc3cc2nc2cc(-c3ccccc3)c3cc(Cl)ccc3n12`
OUTPUT: > 100 µM

INPUT: Look up TGI for this compound: CC(C)=CC(Cc1ccccc1)S(=O)(=O)c1nc2ccccc2s1 (stereo not given)
OUTPUT: 32.3 µM

INPUT: Look up TGI for this compound: `O=C1C2=C(CC3=C(C2)CS(=O)(=O)C3)C(=O)C2=C1CC1=C(C2)CS(=O)(=O)C1`
OUTPUT: > 70 µM

INPUT: Look up TGI for this compound: C[C@@]12CCC[C@@](C)(C(=O)O)C1CC[C@]13C[C@@](O)(CO)[C@](O)(CCC12)C3 (stereo not given in full)
OUTPUT: > 100 µM

INPUT: Look up TGI for this compound: `COC(=O)c1ccc(N=NN(C)COc2ccc(Br)cc2)cc1`
OUTPUT: > 100 µM

INPUT: Look up TGI for this compound: COC(=O)C(C(=O)C(=O)Nc1ccc([N+](=O)[O-])cc1[N+](=O)[O-])c1nc2ccc(Cl)cc2[nH]c1=O (stereo not given)
OUTPUT: > 100 µM

INPUT: Look up TGI for this compound: `C/C1=C/C(=O)O[C@@H]2C[C@@H](CC[C@H](C)/C=C\C=C\CC1)O[C@@](O)([C@@H]1CSC(=O)N1)C2`
OUTPUT: 5.41 µM

INPUT: Look up TGI for this compound: `COc1ccccc1-c1cc(=O)c2cc3c(cc2[nH]1)OCO3`
OUTPUT: > 100 µM

INPUT: Look up TGI for this compound: `O=[P+](O)c1ccsc1`
OUTPUT: > 100 µM

INPUT: Look up TGI for this compound: CCN(CC)c1ccc(C(O)C2=CC(=O)c3ccccc3C2=O)cc1 (stereo not given)
OUTPUT: 2.6 µM

INPUT: Look up TGI for this compound: `NC(=O)/N=C1/CCC2C3CCCC2C13`
OUTPUT: > 100 µM

INPUT: Look up TGI for this compound: C[C@]12CC/C(=N\O)C=C1CC[C@@H]1C2CC[C@@]2(C)C1CC[C@@H]2OC1CCCCO1 (stereo not given in full)
OUTPUT: 42.4 µM

INPUT: Look up TGI for this compound: COc1cc(C2c3cc4c(cc3OC(NNS(=O)(=O)c3ccc(C)cc3)C2C)OCO4)cc(OC)c1O (stereo not given)
OUTPUT: > 100 µM

INPUT: Look up TGI for this compound: `O=c1[nH]c(=S)[nH]c2c1CN(CCCN1CCOCC1)CN2`
OUTPUT: > 100 µM

INPUT: Look up TGI for this compound: CCOC(=O)C1c2[nH]c3ccccc3c2CCN1C(=O)c1ccc(OC)o1 (stereo not given)
OUTPUT: > 10 µM

INPUT: Look up TGI for this compound: `CCOC(=O)C1=CCOc2cc(N(C)C)ccc21`
OUTPUT: > 100 µM

INPUT: Look up TGI for this compound: CSc1nc(NC2OC(COC(C)=O)C(OC(C)=O)C(OC(C)=O)C2OC(C)=O)c2c(n1)OCC2=O (stereo not given)
OUTPUT: > 100 µM

INPUT: Look up TGI for this compound: COc1cccc(NC(=O)c2sc3nc(C)c(C(O)c4ccccc4)cc3c2N)c1 (stereo not given)
OUTPUT: 35.3 µM

INPUT: Look up TGI for this compound: O=C(c1ccccc1)C1OC1c1ccc([N+](=O)[O-])cc1 (stereo not given)
OUTPUT: > 100 µM

INPUT: Look up TGI for this compound: `CC(=O)O[C@H]1CC[C@@]2(C)C(=CC[C@@H]3[C@@H]2CC[C@]2(C)c4c(C)nn(-c5ccccc5)c4C[C@@H]32)C1`
OUTPUT: > 100 µM

INPUT: Look up TGI for this compound: O=c1ncc(F)cn1C1OC(CO)C(O)C1O (stereo not given)
OUTPUT: > 46.4 µM

INPUT: Look up TGI for this compound: `Fc1ccc2c(c1)c(-c1nc(-c3c[nH]c4ncccc34)cs1)cn2CCCCN1CCCCC1`
OUTPUT: 3.32 µM

* * *

# Tested on: SR leukemia
# assay summary: NCI tumour cell line growth inhibition, 48 h
Could you please report measured TGI for the items listed next?

INPUT: Look up TGI for this molecule: `CCOC(=O)C1=CCOc2cc(N(C)C)ccc21`
OUTPUT: > 100 µM

INPUT: Look up TGI for this molecule: NC(=O)NCCCC(NC(=O)OCCCCCCn1ccc(=O)[nH]c1=O)C(=O)O (stereo not drawn)
OUTPUT: > 100 µM

INPUT: Look up TGI for this molecule: `O=c1c2cc3c(=O)n4c(cc(-c5ccccc5)c5cc(Cl)ccc54)nc3cc2nc2cc(-c3ccccc3)c3cc(Cl)ccc3n12`
OUTPUT: > 100 µM

INPUT: Look up TGI for this molecule: `NC(=O)/N=C1/CCC2C3CCCC2C13`
OUTPUT: > 100 µM

INPUT: Look up TGI for this molecule: `c1ccc(CN2COc3c(ccc4c3OCN(Cc3ccccc3)C4)C2)cc1`
OUTPUT: > 100 µM

INPUT: Look up TGI for this molecule: `O=C(O)C1(C(=O)O)CCC1.[NH2-].[NH2-].[Pt+2]`
OUTPUT: > 230 µM

INPUT: Look up TGI for this molecule: `NCCOCCOCCNc1nc(-c2ccccc2)nc(N2CCN(c3ccccn3)CC2)n1`
OUTPUT: 4.64 µM

INPUT: Look up TGI for this molecule: `Clc1ccc(-c2c3c(nn2-c2ccccn2)CCc2ccccc2-3)cc1Cl`
OUTPUT: > 100 µM

* * *

# System: SNB-75 CNS
# assay summary: NCI tumour cell line growth inhibition, 48 h
Could you please report measured TGI for the items listed next?

INPUT: Look up TGI for this compound: NC(Cc1ccc(N(CCCl)CCCl)cc1)C(=O)NC(CCC(=O)O)C(=O)O (stereo not drawn)
OUTPUT: > 100 µM

INPUT: Look up TGI for this compound: Nc1nc2ncc(CNc3ccc(C(=O)NC(CCC(=O)O)C(=O)O)cc3)nc2c(=O)[nH]1 (stereo not drawn)
OUTPUT: > 100 µM

INPUT: Look up TGI for this compound: Cc1cccc(C)c1NC(=O)C1C(=O)N(c2c(C)cccc2C)C(=O)/C1=N\N (stereo not drawn)
OUTPUT: > 100 µM

* * *

# Test system: A549 NSCLC
# assay summary: NCI tumour cell line growth inhibition, 48 h
endpoint: TGI

INPUT: Request - read-out TGI | tested on A549 NSCLC | compound `Oc1ccc(C(c2ccc(O)cc2)c2ccc(O)cc2)cc1`
OUTPUT: > 100 µM

INPUT: Request - read-out TGI | tested on A549 NSCLC | compound CSc1nc(NC2OC(COC(C)=O)C(OC(C)=O)C(OC(C)=O)C2OC(C)=O)c2c(n1)OCC2=O (stereo not drawn)
OUTPUT: > 100 µM

INPUT: Request - read-out TGI | tested on A549 NSCLC | compound CC1CCCC(C(O)CC2CC(=O)NC(=O)C2)C1O (stereo not drawn)
OUTPUT: > 100 µM

INPUT: Request - read-out TGI | tested on A549 NSCLC | compound C[C@@]12CCC[C@@](C)(C(=O)O)C1CC[C@]13C[C@@](O)(CO)[C@](O)(CCC12)C3 (stereo partly drawn)
OUTPUT: > 100 µM

INPUT: Request - read-out TGI | tested on A549 NSCLC | compound `O=c1[nH]c(=S)[nH]c2c1CN(CCCN1CCOCC1)CN2`
OUTPUT: > 100 µM

INPUT: Request - read-out TGI | tested on A549 NSCLC | compound `C=CCN(C(=O)OC(C)(C)C)[C@H](C)C(=O)N[C@@H](C)C(=O)OC`
OUTPUT: > 100 µM

INPUT: Request - read-out TGI | tested on A549 NSCLC | compound `CN(C)CCNC(=O)c1cccc(N(C)C(=O)c2ccccc2)c1[N+](=O)[O-]`
OUTPUT: > 100 µM

INPUT: Request - read-out TGI | tested on A549 NSCLC | compound `Cn1cnc([N+](=O)[O-])c1Sc1nccn1-c1cccc2ccccc12`
OUTPUT: > 100 µM
